Tested on: L. amazonensis (MHOM/Br/79/Maria) promastigotes
Experiment: In vitro promastigote susceptibility assay (resazurin)
Format: cell-based
Details: CC50 J774 / IC50 L. amazonensis promastigotes
Experimental: The following species of Leishmania were used: L. donovani (MHOM/IN/80/DD8) was purchased (ATCC, USA) and L. amazonensis (MHOM/Br/79/Maria) was kindly provided by Prof. Alfredo Toraño (Instituto de Salud Carlos III, Madrid). […] Growth inhibition (%) was calculated by 100 – [(RFU treated wells – RFU signal-to-noise)/(RFU untreated – RFU signal-to-noise) × 100]. […] Miltefosine (Sigma-Merck, Madrid, Spain) was used as the reference drug and was evaluated under the same conditions. […]
Task for the reader: assign each of the following compounds its reported SI (selectivity index, SI = CC50/IC50).

Answer with the recorded SI (selectivity index, SI = CC50/IC50) of O=C(c1ccc2ccccc2c1)c1cccn1-c1ncccn1 [5an] only. >3.12

Answer with the recorded SI (selectivity index, SI = CC50/IC50) of Cc1cccnc1-n1cccc1C(=O)c1cccc(OCc2ccccc2)c1 [5bp] only. >1.31

Answer with the recorded SI (selectivity index, SI = CC50/IC50) of CC(C)(C)c1ccc(C(=O)c2cccn2-c2ncccn2)cc1 [5ac] only. >2.77

Answer with the recorded SI (selectivity index, SI = CC50/IC50) of O=C(c1cc(C(F)(F)F)cc(C(F)(F)F)c1)c1cccn1-c1ncccn1 [5am] only. >4.53

Answer with the recorded SI (selectivity index, SI = CC50/IC50) of Cc1cccnc1-n1cccc1C(=O)c1ccn(C)c1 [5br] only. >1.66
